test system: A498 renal; test: NCI tumour cell line growth inhibition, 48 h
Where a SMILES comes first, the peptide text is derived from it. The star is where a group is joined. Cbz = O=C(OCc1ccccc1)*; OBn = c1ccc(CO*)cc1
Threshold check on TGI: at or above 20 µM gives 1 (yes), strictly below gives 0 (no).

stdin: Assess whether reported TGI for COC(=O)/C=C/c1cc(O)c2c(c1)[C@H](C(=O)OC)[C@@H](c1ccc(O)c(O)c1)O2 sits at 20 µM or higher.
stdout: 1 (yes)

stdin: // query: Nc1c(C(=O)Nc2ccccc2)[n+]([O-])c2ccccc2[n+]1[O-]
stdout: 1 (yes)

stdin: Record: CC(=O)OC1CC2(O)C3CCC4CC(O)CCC4(C)C3CCC2(C)C1C1=CC(=O)OC1 (stereo not given)
stdout: 0 (no)

stdin: Do the same for CCN1c2ccccc2C(Cl)(c2ccc(N(C)C)cc2)c2ccccc21 please
stdout: 1 (yes)

stdin: How about O=C(O)c1cc(N=Cc2ccccc2O)cc(C(=O)O)c1 ?
stdout: 1 (yes)

stdin: // same read-out, input: CN1CCN(Cc2ccc(NC(=O)c3ccc(C#Cc4c(N)ncc5ccc(F)cc45)cc3)cc2C(F)(F)F)CC1
stdout: 0 (no)

stdin: How about this compound: O=c1c(C=Nc2ccc([N+](=O)[O-])cc2)c(O)n(-c2ccccc2)c(=O)n1-c1ccccc1
stdout: 1 (yes)

stdin: Now the compound CC(=O)OC(OC(C)=O)n1cc(C=O)c2ccccc21
stdout: 1 (yes)

stdin: Note, next up: C1CCC(OC2CSC2)OC1 (stereo not given)
stdout: 1 (yes)

stdin: Another compound to check: COc1ccccc1/C=N\N=C(N/N=C/c1ccccc1OC)N/N=C/c1ccccc1OC
stdout: 0 (no)

stdin: Also COC(=O)C(Cc1ccc(O)cc1)NC(=O)C(CC(=O)OCc1ccccc1)NC(=O)OCc1ccccc1 (stereo not given) (Cbz-Asp(OBn)-Tyr-OMe; configuration not given here) , if possible.
stdout: 1 (yes)

stdin: Then what about the compound C=C(CC[C@@H](C(=O)O)[C@H]1[C@H](O)C[C@@]2(C)C3=CC[C@@H](C(=C)C)[C@](C)(CCC(=O)O)C3=CC[C@]12C)C(C)C ?
stdout: 1 (yes)

stdin: Now the compound C=CC1CC12C(=O)C1OC2(C)C2C(=O)c3c(O)ccc(O)c3C(=O)C12 (stereo not given)
stdout: 0 (no)

stdin: Moving on to C=CCSC1=N/C(=C\c2ccccc2)C(=O)N1CC=C
stdout: 1 (yes)

stdin: Field entry: NCCNc1cccc2ccccc12
stdout: 1 (yes)

stdin: Next compound: COC(OC)C1OC(CO)C(n2ccc(N)nc2=O)C1O (stereo not given)
stdout: 1 (yes)

stdin: Same thing, different compound: C/C(=N\NC(N)=S)C(CN(CC(C)C)CC(C)C)C(=O)Nc1ccc(C)cc1C (stereo not given)
stdout: 1 (yes)

stdin: Then what about the compound Cc1ccc2c(c1)NC(=O)CC(c1ccccc1)=N2 ?
stdout: 1 (yes)

stdin: Same lookup for CC(C)NC(=O)OCc1c(COC(=O)NC(C)C)c(-c2ccc(Cl)cc2)n2c1CCC2 , please.
stdout: 0 (no)

stdin: Field entry: COc1cc(/C=C2\CCC(CN(C)C)C2=O)ccc1OC(=O)c1ccccc1 (stereo not given)
stdout: 1 (yes)

stdin: What do you get for COc1ccc(Cl)cc1NC(=O)C(Br)C(Br)C(=O)O (stereo not given) ?
stdout: 1 (yes)

stdin: Follow-up entry: C=C(c1ccc(C(=O)N(C)c2ccccc2N)cc1)C(C)N1C(=O)[C@H]2CCCN2C(=O)c2ccccc21 (stereo not given in full)
stdout: 1 (yes)

stdin: Ok, now O=C1Cc2c([nH]c3ccc(Br)cc23)-c2ccccc2N1
stdout: 1 (yes)

stdin: Now try Cc1cccc(C2=NC(C)(C)C(C)(C)N=C2c2cccc(C)n2)n1 .
stdout: 1 (yes)

stdin: And O=c1cc(-c2ccccc2)[nH]n1-c1nc2ccccc2[nH]1 ?
stdout: 1 (yes)

stdin: How about CC(=O)CCCCO ?
stdout: 1 (yes)

stdin: Can you handle COc1ccccc1C#Cc1ccccc1C#CCCCCCC#Cc1ccccc1C#Cc1ccccc1OC next?
stdout: 1 (yes)

stdin: Here is the next compound: CCN(CCCl)CCCNc1c2ccccc2nc2ccc(OC)cc12
stdout: 1 (yes)
